# System: Wnt5a (protein binding on small-molecule microarray)
# RUN_DESCRIPTION: small molecules binding Wnt5a protein – biophysical, small-molecule microarray, 635/667 nm fluorescence, primary screen (AID 1142);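 further: fluorescence read at 667 nm with signal to noise per printed feature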
# CONDITION_NOTES: 635 nm fluorescence, higher = more signal
RECORDED_METRIC: composite z-score

1. [N-]=[N+]=NCc1ccccc1[C@@H]1OC(c2ccc(OCCCO)cc2)=N[C@]1(CCS(=O)(=O)c1ccccc1)C(=O)O | 0.132
2. CCOC(=O)C[C@H]1[C@H](OC(=O)c2ccccc2-c2ccccc2)[C@@H](NC(=O)c2ccc3ccccc3n2)c2cc(OCCCO)ccc2N1C(=O)Cc1ccc(OC)cc1 | 0.0204
3. CC1CC/C=C\[C@H]2OC34C=CCN(C(C)(C)C)C(=O)[C@H]3N(CCCCCO)C(=O)[C@@H]4C2C(=O)O1 (some centres undefined) | -0.427
4. Cc1ccc(N2C(=O)c3ccccc3[C@@H](C(=O)NCCCN(C)C)[C@@H]2c2ccc(CO)cc2)nc1 | -0.198
5. COc1ccc([Si](C)(C)[C@@H]2[C@@H](CCO)O[C@]3(C(=O)N(Cc4ccccc4)c4ccc(N5CCOC5=O)cc43)[C@H]2C)cc1 | 0.0035
6. CCCN1C(=O)[C@@]2(Cc3ccccc31)N=C(c1ccc(OCCCO)cc1)O[C@H]2c1ccccc1 | 1.16
7. CC(C)NC(=O)[C@@]1(C)c2ccccc2C(=O)N(Cc2ccc(OC(F)(F)F)cc2)[C@H]1c1ccc(CO)cc1 | -0.766
8. C#CCN([C@@H](Cc1ccccc1)C(=O)OC)[C@@H](/C=C/C1CC1)[C@H](O)Cc1ccccc1 | -0.476
9. CCCNC(=O)[C@@]1(Sc2ccc(C)cc2)CC(=O)N(C2Cc3ccccc3C2)[C@@H]1c1ccc(CO)cc1I | 0.196
10. O=C1C2C=CC(C(O)c3ccco3)N(Nc3ccccc3F)C2C(=O)N1c1ccccc1 (centres undefined) | 0.0072
11. CCOC(=O)C[C@H]1[C@H](OC(=O)c2cc3ccccc3oc2=O)[C@@H](NC(=O)c2ccccc2)c2cc(OCCCO)ccc2N1C(=O)c1ccccc1 | 0.315
12. CC(C)C(CO)N1C(=O)[C@@H]2C3C(=O)OCCC/C=C\[C@H]3OC23C=CCN(Cn2nnc4ccccc42)C(=O)[C@@H]13 (some centres undefined) | -0.665
13. C=CCC(OC(C)=O)[C@@H]1[C@@H](N(Cc2cccc3ccccc23)C(=O)Cc2ccc(OC)cc2)c2cc(OCCCO)ccc2N1C(=O)c1ccc(-c2ccccc2)cc1 (some centres undefined) | -0.213
14. CCOC(=O)C[C@H]1[C@H](OC(=O)c2cc3ccccc3oc2=O)[C@@H](NC(=O)c2ccc3ccccc3n2)c2cc(OCCCO)ccc2N1C(=O)Cc1ccc(OC)cc1 | 0.155
15. CC[C@@H]1C=C(C(=O)O)[C@H](c2ccccc2)N1S(=O)(=O)c1ccc(C)cc1 | 0.0651
16. C=CCNC(=O)[C@@H]1[C@H]2C(=O)O[C@H](c3ccccc3)[C@H](c3ccccc3)N2[C@H](c2ccccc2OCCO)[C@@]12C(=O)Nc1ccc(C#CCC(C(=O)OC)C(=O)OC)cc12 | 0.0142
17. O=C1N(CCS(=O)(=O)c2ccccc2)c2ccccc2[C@H]2OC(c3ccc(OCCCO)cc3)=N[C@@]12Cc1ccccc1 | 0.636
18. COc1ccc(CCNC(=O)[C@@H]2c3ccccc3C(=O)N(C3CCCCC3)[C@H]2c2ccc(CO)cc2)cc1 | 0.378
19. CC(C)[Si](C#C[Si](C(C)C)(C(C)C)C(C)C)(O[C@H](c1ccccc1)c1cn(Cc2ccccc2)nn1)C(C)C | -0.0366
20. CC(c1ccccc1)C(O)C1C=CC2C(=O)N(C)C(=O)C2N1Nc1ccccc1 (centres undefined) | 0.462
21. CC#CCO[Si](C#Cc1ccccc1)(C(C)C)C(C)C | -0.254
22. CCCCCN1CC=CC23O[C@@H]4/C=C\CCCOC(=O)C4[C@H]2C(=O)N(C(C)CO)[C@@H]3C1=O (some centres undefined) | -0.917
23. C=C(/C(=C/C[C@H](OC(C)=O)c1ccc(CO)o1)c1cnc2ccccc2c1)C(C)C | 0.473
24. C=CCNC(=O)[C@@H]1[C@H]2C(=O)O[C@H](c3ccccc3)[C@H](c3ccccc3)N2[C@H](c2ccccc2OCCO)[C@@]12C(=O)N(C(=O)OCCOC)c1ccc(C#CC3(O)CCCCCC3)cc12 | 0.238
25. CC(C)N1C(=O)c2ccccc2[C@@H](C(=O)NCCN2CCOCC2)[C@@H]1c1ccc(CO)cc1 | -1.15
26. COc1ccc(C#Cc2ccc3c(c2)[C@]2(C(=O)N3)[C@H](c3ccc(OCCO)cc3)N3[C@H](c4ccccc4)[C@H](c4ccccc4)OC(=O)[C@H]3[C@@H]2C(=O)NC[C@H](O)c2ccccc2)cc1 | 0.501
27. CC(=O)NCCCC[C@@H]1NC(=O)[C@@H]2C[C@H](C(=O)NCCCCCN)[C@H](c3ccc(O)cc3)N2C1=O | 0.66
28. [N-]=[N+]=Nc1ccccc1[C@H]1OC(c2ccc(OCCCO)cc2)=N[C@@]1(Cc1ccccc1)C(=O)NCCN1CCOCC1 | 1.47
29. COC(=O)C1=CC(CCCO)=CC(c2ccc(CN3CCCC3)cc2)N(Cc2cccc(OC(F)(F)F)c2)C=C1C(=O)OC (centres undefined) | -0.0146
